Cited source for all entries: patent US7390804B2

# Subject Of Test: UniProt:P43235
# Sequence (P43235 115-329): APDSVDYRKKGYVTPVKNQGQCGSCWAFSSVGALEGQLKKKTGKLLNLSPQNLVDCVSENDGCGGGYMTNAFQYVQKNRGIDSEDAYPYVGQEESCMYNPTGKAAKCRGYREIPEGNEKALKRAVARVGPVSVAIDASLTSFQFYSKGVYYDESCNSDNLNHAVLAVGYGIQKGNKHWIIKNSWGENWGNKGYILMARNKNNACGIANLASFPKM
Readout: pKi
For clarity, pKi is expressed as the negative log10 of concentration in mol/L.

// field: pKi; key: `CC(C)C[C@H](NC(=O)[C@H](CC(C)C)NC(=O)OCc1ccccc1)C(=O)Cn1nnc(-c2c(F)c(F)c(F)c(F)c2F)n1` ; value = 7.68
